# Tested On: human GPCR sphingosine 1-phosphate receptor 2 (Homo sapiens, UniProt O95136)
# Construct: host or cells: CHO
# Sequence (O95136 whole entry): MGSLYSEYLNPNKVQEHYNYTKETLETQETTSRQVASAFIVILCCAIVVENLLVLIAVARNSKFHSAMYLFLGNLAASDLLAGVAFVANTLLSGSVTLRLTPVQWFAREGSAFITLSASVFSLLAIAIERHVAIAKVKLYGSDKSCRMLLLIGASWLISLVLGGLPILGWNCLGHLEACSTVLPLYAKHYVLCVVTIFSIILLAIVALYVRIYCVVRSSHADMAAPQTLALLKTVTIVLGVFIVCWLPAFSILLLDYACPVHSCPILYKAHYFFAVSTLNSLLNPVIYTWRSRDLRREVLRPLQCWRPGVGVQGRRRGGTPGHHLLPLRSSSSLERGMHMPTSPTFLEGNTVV
# Test: S1PR2 antagonist Ca2+ flux assay
# Type: cell-based
# Cond: antagonist mode, CHO-S1PR2 cells, S1P at EC80, Ca2+ fluorescence; read-out: S1P2 EC50 (nM), S1P2 antagonist EC50
Binned EC50; ranges: class 1 (below 30 nM), class 2 (30 nM to below 60 nM), class 3 (60 nM or more)

Use these answered entries as a reference point.
Compound	Assigned Category
CCOc1cc2[nH]n(Cc3nn(CC(=O)O)c(=O)c4ccccc34)c(=O)c2cc1Cl [Compound 128]	class 1
O=C(Cn1nc(Cc2nc3cc(OC(F)(F)F)c(Cl)cc3[nH]2)c2ccccc2c1=O)NC1CCS(=O)(=O)CC1 [Compound 141]	class 1

Now consider the entry below.
Query: Tag the class for N#Cc1cc2[nH]c(Cn3nc(CC(=O)N4CCOCC4)c(=O)c4ccccc43)nc2cc1OCC(F)F [Compound 49]
Reply: class 2
